- system: hSULT1A2 (Homo sapiens, UniProt P50226)
- Construct: 6-histidine tag (N); TEV site (N); made in house; host or cells: Escherichia coli BL21 (DE3), pET29a(+)
- Sequence (P50226 whole entry): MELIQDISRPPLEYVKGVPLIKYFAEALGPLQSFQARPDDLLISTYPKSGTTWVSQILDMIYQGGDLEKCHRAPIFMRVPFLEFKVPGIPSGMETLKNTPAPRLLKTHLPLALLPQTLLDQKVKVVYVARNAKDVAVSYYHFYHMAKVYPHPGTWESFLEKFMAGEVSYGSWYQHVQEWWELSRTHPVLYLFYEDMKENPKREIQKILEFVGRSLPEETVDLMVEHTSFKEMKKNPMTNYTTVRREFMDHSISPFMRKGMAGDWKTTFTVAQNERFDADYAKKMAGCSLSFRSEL
- experiment_notes: Fluorescence-based microplate inhibition assay, hSULT1A2-catalyzed HN-241 4-O-sulfation
- Assay type: biochemical
- run_conditions: test compound 10 μM, HN-241 5 μM, 15 min
Reported Residue activity (%) hSULT1A2 values are given for each entry in this list.
Numeric answer only, unit % assumed.

Past entries and their recorded results:
COc1cc(-c2oc3cc(O)cc(O)c3c(=O)c2O[C@@H]2O[C@H](CO[C@@H]3O[C@@H](C)[C@H](O)[C@@H](O)[C@H]3O)[C@@H](O)[C@H](O)[C@H]2O)ccc1O [Narcissoside] | 86.78
COc1ccc(-c2cc(=O)c3c(O)cc(O)c(-c4cc(-c5cc(=O)c6c(O)cc(OC)cc6o5)ccc4OC)c3o2)cc1 | 2.03
COC[C@]12CN(C)[C@@H]3[C@@H]4[C@H](OC)[C@H]1[C@@]3([C@@H](OC)C[C@H]2O)[C@@H]1C[C@@]2(O)[C@H](OC(=O)c3ccccc3)[C@@H]1[C@]4(OC(C)=O)[C@@H](O)[C@@H]2OC | 114.51

Read the next record carefully.
Q: Please tell me the measured Residue activity (%) hSULT1A2 for C[C@]12CC[C@H](O)C[C@@]1(O)CC[C@@H]1[C@@H]2CC[C@]2(C)[C@@H](c3ccc(=O)oc3)CC[C@]12O ; system: hSULT1A2 (Homo sapiens, UniProt P50226).
Ans: 109.91

Values were extracted from paper PMC11202169.
